Kindly state Product (nmole/min/nmole P450) for each of the entries shown.
tested on: CYP704A2; experiment: Enzyme activity and substrate specificity of recombinant CYP704A2 (microsomes from yeast, radiolabeled substrates, TLC and GC/MS of metabolites); type: biochemical, Arabidopsis thaliana; conditions: microsomes from yeast expressing CYP704A2, 100 μM radiolabeled substrate, 20 min at 27° C., 78 pmoles of CYP704A2, TLC
Use nmole/min/nmole P450 as the unit, but write only the number.

(Q) Request the reported Product (nmole/min/nmole P450) associated with CCCCCCCCCCCCO [C12-OH:0, dodecanol]
(A) 12.6

(Q) Report Product (nmole/min/nmole P450) for CCCCCCCCCCCCCCCCO [C16-OH:0] please.
(A) 6.5

(Q) Would you mind telling me what Product (nmole/min/nmole P450) value was observed for CCCCCCCCCCCCCCCC(=O)O [C16:0, palmitic acid] ?
(A) 18.3

(Q) What does the record list as Product (nmole/min/nmole P450) for CCCCCCCCCCCC(=O)O [C12:0, lauric acid] ?
(A) 7.3

(Q) Need Product (nmole/min/nmole P450), item CCCCCCCCCCCCCCCC [C16 alkane, hexadecane]
(A) 22.4
